system_tested: Gcr1 (UniProt P07261)
Sequence: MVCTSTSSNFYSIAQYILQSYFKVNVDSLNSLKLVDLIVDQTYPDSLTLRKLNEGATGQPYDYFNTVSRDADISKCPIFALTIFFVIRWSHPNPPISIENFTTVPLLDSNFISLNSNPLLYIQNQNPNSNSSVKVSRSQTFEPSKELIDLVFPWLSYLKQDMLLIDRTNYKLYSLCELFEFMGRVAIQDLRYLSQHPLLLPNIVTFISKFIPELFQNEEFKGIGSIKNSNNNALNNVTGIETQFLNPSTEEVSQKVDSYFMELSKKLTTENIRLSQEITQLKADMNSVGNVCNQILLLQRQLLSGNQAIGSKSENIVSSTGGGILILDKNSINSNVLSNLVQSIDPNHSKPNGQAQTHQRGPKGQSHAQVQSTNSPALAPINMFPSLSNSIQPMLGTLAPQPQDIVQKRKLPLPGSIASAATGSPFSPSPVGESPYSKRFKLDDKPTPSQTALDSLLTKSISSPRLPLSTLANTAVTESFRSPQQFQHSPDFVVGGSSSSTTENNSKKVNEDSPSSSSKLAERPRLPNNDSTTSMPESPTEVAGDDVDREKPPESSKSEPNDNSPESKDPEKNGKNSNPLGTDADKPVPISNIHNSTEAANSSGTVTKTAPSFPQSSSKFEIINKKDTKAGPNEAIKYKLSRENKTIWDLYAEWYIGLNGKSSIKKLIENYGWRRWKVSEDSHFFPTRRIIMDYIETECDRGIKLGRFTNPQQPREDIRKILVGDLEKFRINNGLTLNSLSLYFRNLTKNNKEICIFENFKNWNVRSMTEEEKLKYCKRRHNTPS
experiment_description: PBM E-score (8-mer binding enrichment) (E-score (-0.5 to 0.5)); higher = stronger / more preferred TF binding
protocol_conditions: protein concentration: 100 nM; construct: GST-full length
The full ranking holds about 33,000 sequences; the median of “E-score (-0.5 to 0.5)” is about -0.011, and the highest 2% start at about 0.28. For the sample, the highest values were picked, then their nearest neighbours and some sequences at random.
Documented PBM E-score across a set of sequences
No unit in the answer, only the number.

Sample records with PBM E-score:
sequence_entry | system_tested | value_type | recorded_measurement
ATATGAGG | Gcr1 (UniProt P07261) | PBM E-score | 0.033
AGAGGGGC | Gcr1 (UniProt P07261) | PBM E-score | -0.044
ATTACTGG | Gcr1 (UniProt P07261) | PBM E-score | 0.362
AGGGCAGG | Gcr1 (UniProt P07261) | PBM E-score | -0.173
GCGGACTA | Gcr1 (UniProt P07261) | PBM E-score | -0.12
ATTACTGA | Gcr1 (UniProt P07261) | PBM E-score | -0.0681
CATACTGG | Gcr1 (UniProt P07261) | PBM E-score | 0.209
GATGCGGC | Gcr1 (UniProt P07261) | PBM E-score | 0.299
GTCCGAAA | Gcr1 (UniProt P07261) | PBM E-score | 0.212
GAGGATGC | Gcr1 (UniProt P07261) | PBM E-score | 0.423

# input Request the reported PBM E-score associated with CGTACCGC
# output -0.162

# input And what about the sequence CCCGAAAG ?
# output 0.224

# input Request: CAGGACGC
# output 0.412

# input Query ATATGCTA next
# output 0.115

# input Follow-up item: AATACTGA
# output 0.0152

# input Next record, please: AGTTCGAA
# output -0.0147

# input Moving on to the next sequence: GATGCGGA
# output 0.033

# input And what about the sequence ACACGAAA ?
# output -0.131

# input // same read-out, input: CCTTAAAG
# output 0.0175

====

system_tested: Gcr1 (UniProt P07261)
Sequence: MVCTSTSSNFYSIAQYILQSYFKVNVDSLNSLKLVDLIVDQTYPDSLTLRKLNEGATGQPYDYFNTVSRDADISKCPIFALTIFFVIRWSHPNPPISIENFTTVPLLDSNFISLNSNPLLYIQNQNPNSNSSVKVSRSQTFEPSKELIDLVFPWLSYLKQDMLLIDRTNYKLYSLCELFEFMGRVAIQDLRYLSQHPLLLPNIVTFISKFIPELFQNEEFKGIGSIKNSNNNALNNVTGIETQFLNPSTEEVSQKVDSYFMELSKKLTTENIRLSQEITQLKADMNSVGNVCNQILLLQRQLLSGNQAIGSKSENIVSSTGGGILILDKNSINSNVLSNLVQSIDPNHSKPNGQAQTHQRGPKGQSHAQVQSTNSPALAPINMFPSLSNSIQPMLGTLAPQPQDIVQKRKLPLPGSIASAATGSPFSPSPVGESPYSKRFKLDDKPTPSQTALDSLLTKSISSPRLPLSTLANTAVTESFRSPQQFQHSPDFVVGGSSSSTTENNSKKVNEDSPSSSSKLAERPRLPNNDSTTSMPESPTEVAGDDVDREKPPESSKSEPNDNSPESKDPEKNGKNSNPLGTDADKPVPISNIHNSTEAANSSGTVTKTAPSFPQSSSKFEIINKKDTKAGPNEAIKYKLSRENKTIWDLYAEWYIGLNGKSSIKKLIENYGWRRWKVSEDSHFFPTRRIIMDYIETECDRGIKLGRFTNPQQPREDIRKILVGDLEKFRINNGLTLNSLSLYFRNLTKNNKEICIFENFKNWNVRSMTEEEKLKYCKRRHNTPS
experiment_description: PBM E-score (8-mer binding enrichment) (E-score (-0.5 to 0.5)); higher = stronger / more preferred TF binding
protocol_conditions: protein concentration: 100 nM; construct: GST-full length
In all, about 33,000 sequences were measured (“E-score (-0.5 to 0.5)”: median about -0.011, highest 2% from about 0.28 on). The sample holds the highest values, similar sequences and a random draw of the others, so the mix is not that of the screen.
value_type: PBM E-score
# respond with the number and nothing more

Known PBM E-score results, listed for orientation:
sequence_entry | recorded_measurement
GAGATTCC | 0.363
ACTCTTCA | -0.15
AGGGATAT | -0.234

# input Consider the sequence AGGGGAAA and give its measured PBM E-score.
# output 0.0362

# input Also TACCACTA ?
# output 0.365

# input Item: CAGATTCG
# output 0.037

# input Similarly, AGTGGCTG ?
# output 0.312

# input Entry to check: CGGGCTGA
# output -0.241

# input Now the same for AGTCCTGG
# output 0.0342

# input Lookup AGTGGACA
# output -0.0203

# input Input CACCACTC
# output 0.134

# input Would you mind doing AACGCGGT as well?
# output -0.107

# input How about this sequence: CACCACTA
# output 0.298

# input Now this one: CAGAGGAA
# output 0.0251

# input Would you mind doing GCTTTGGA as well?
# output 0.0838

# input And the next one, GGAGTAAC ?
# output -0.116

# input Now consider ACAGAGGT .
# output 0.0543

# input Would you mind doing AAAATGGA as well?
# output 0.142

# input Entry AGCAGCTC please
# output 0.16

# input One more sequence: GTCGGTTA
# output -0.058

# input Okay, and CAGATTCC ?
# output 0.388

# input And for AAGGTTCA ?
# output -0.179

# input // query: CGTGGAAC
# output -0.113

# input What about this sequence? CGCAGCGC
# output 0.15

# input Next sequence up: CAGGGACC
# output 0.0209

# input Try the sequence ATCAGCCG
# output -0.264

====

Parameter: PBM E-score. Scope: all listed entries.
system_tested: Gcr1 (UniProt P07261)
Sequence: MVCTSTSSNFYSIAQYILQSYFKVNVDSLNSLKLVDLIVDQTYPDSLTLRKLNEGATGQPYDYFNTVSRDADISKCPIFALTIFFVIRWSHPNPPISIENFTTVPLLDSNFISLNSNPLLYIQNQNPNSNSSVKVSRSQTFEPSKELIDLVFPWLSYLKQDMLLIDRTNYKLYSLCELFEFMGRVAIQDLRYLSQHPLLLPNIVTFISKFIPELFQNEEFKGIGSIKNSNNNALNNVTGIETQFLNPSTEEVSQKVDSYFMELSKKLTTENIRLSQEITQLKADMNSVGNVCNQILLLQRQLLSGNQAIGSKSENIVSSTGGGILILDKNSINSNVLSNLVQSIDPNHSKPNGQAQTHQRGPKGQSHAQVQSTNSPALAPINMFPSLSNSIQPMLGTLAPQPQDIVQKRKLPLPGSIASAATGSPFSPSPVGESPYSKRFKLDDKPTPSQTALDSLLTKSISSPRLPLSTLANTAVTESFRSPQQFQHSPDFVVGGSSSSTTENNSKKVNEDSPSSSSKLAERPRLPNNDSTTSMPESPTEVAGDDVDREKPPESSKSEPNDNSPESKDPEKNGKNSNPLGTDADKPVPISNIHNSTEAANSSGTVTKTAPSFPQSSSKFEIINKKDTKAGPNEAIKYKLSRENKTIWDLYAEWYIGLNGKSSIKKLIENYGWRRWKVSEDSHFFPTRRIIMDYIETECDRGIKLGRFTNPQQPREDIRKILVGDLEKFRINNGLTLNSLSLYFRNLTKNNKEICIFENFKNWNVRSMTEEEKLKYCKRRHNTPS
experiment_description: PBM E-score (8-mer binding enrichment) (E-score (-0.5 to 0.5)); higher = stronger / more preferred TF binding
protocol_conditions: protein concentration: 100 nM; construct: GST-full length
Over roughly 33,000 sequences, “E-score (-0.5 to 0.5)” has its median near -0.011; the highest 2% begin near 0.28. This is one part of a sample in which the highest values are shown more often than they occur.
Lab note: jot the number down without any unit.

// known answers, use as guide
sequence_entry | system_tested | PBM E-score
ATGTTGTA | Gcr1 (UniProt P07261) | 0.104
GCAGGTAA | Gcr1 (UniProt P07261) | 0.0517
AGCATCTA | Gcr1 (UniProt P07261) | 0.319
AGTCCTCG | Gcr1 (UniProt P07261) | -0.0287
ACTTCTCG | Gcr1 (UniProt P07261) | -0.0046

# input Given the entry AGCATCTG , report its measured PBM E-score.
# output 0.115

# input # iterate: GCCAGCGA
# output -0.0966

# input Next entry: AGCAAAGG
# output -0.135

# input What would you report for GTAGGCCA ?
# output -0.106

# input Please give the result for ACCCACTG too.
# output 0.147

# input Moving on to GATGGATA
# output 0.0193

# input Same lookup for GAAGAGAA , please.
# output 0.0371

# input Also CCCTCAGC ?
# output -0.0815

# input Cool, now AAACCTAA
# output 0.0813
